Target: glutathione-S-transferase (GST) tagged LXRalpha LBD (ligand binding domain) (Homo sapiens, UniProt Q13133)
Construct: purchased Invitrogen pv4655
Test: LanthaScreen TR-FRET Liver X Receptor Coactivator Assay, co-activator recruitment to LXRalpha LBD
Type: biochemical
Settings: potency (Inflection Point, IP), co-activator recruitment to LXRalpha LBD, in relation to T0901317; read-out: LXR alpha IP
pEC50: −log10 of the molar value.
Is pEC50 at least 6? Then TRUE. If not, FALSE.

Input line: Quick check, pEC50 >= 6? CN(C)C(=O)c1ccc(N2CCC(CC3CCN(C(=O)[C@](O)(c4cccc(OC(F)F)c4)C(F)(F)F)CC3)CC2)cc1
Output line: FALSE

Input line: Is it the case that CN(C)C(=O)c1ccc(N2CCC(CC3CCN(C(=O)C(O)(c4cccnc4)C(F)(F)F)CC3)CC2)nc1Cl (centres unmarked) has pEC50 reaching or exceeding 6?
Output line: FALSE

Input line: Item CN(C)C(=O)c1ccc(N2CCC(CC3CCN(C(=O)[C@](O)(c4cccc(OC(F)F)c4)C(F)(F)F)CC3)CC2)cc1Cl with pEC50 of 6 or above?
Output line: TRUE

Input line: Decide: pEC50 of CC(C)c1cccc([C@@](O)(C(=O)N2CCC(CC3CCN(c4ccc(C(=O)N(C)C)c(Cl)c4)CC3)CC2)C(F)(F)F)c1 >= 6?
Output line: TRUE

Input line: Check if pEC50 >= 6 (inclusive). Item: O=C(c1ccc(N2CCC(CC3CCN(C(=O)[C@](O)(c4ccccc4)C(F)(F)F)CC3)CC2)cc1Cl)N1C2CCC1CC2
Output line: TRUE

Input line: Is pEC50 at least 6? Consider Cc1cc(N2CCC(CC3CCN(C(=O)[C@](O)(c4cccc(Cl)c4)C(F)(F)F)CC3)CC2)ccc1C(=O)N(C)C
Output line: TRUE

Input line: Quick check, pEC50 >= 6? COc1cccc([C@@](O)(C(=O)N2CCC(CC3CCN(c4ccc(C(=O)N(C)C)c(Cl)n4)CC3)CC2)C(F)(F)C(F)(F)F)c1
Output line: TRUE

Input line: Confirm if pEC50 reported for the compound CN(C)C(=O)c1ccc(N2CCC(CC3CCN(C(=O)[C@@](O)(c4cc(F)cc(Cl)c4)C(F)(F)F)CC3)CC2)nc1Cl is 6 or above.
Output line: FALSE

Input line: Decide: pEC50 of COc1cccc([C@@](O)(C(=O)N2CCC(CC3CCN(c4ccc(C(=O)N(C)C)c(Cl)n4)CC3)CC2)C(F)(F)F)c1 >= 6?
Output line: TRUE

Input line: Does the reported pEC50 for CNC(=O)c1ccc(N2CCC(OC3CCN(C(=O)C(O)(c4cccc(OC)c4)C(F)(F)F)CC3)CC2)cc1Cl (centres unmarked) fall at or above the 6 mark?
Output line: FALSE

Input line: Entry CN(C)C(=O)c1ccc(N2CCC(CC3CCN(C(=O)C(O)(c4cccnc4)C(F)(F)F)CC3)CC2)cc1Cl (centres unmarked) : is its pEC50 no less than 6?
Output line: FALSE

Input line: Given CN(C)C(=O)c1ccc(N2CCC(CC3CN(C(=O)[C@](O)(c4cc(F)cc(Cl)c4)C(F)(F)F)C3)CC2)nc1Cl , state whether its pEC50 is at least 6.
Output line: TRUE

Input line: Confirm if pEC50 reported for the compound COc1cccc([C@@](O)(C(=O)N2CC(CC3CCN(c4ccc(C(=O)N(C)C)c(C)n4)CC3)C2)C(F)(F)F)c1 is 6 or above.
Output line: TRUE

Input line: // inclusive: pEC50 at least 6? input: CNC(=O)c1ccc(N2CCC(OC3CCN(C(=O)C(O)(c4cccc(F)c4)C(F)(F)F)CC3)CC2)cc1Cl (centres unmarked)
Output line: FALSE

Input line: Has CN(C)C(=O)c1ccc(N2CCC(CC3(C)CCN(C(=O)[C@](O)(c4cc(F)cc(Cl)c4)C(F)(F)F)CC3)CC2)cc1Cl a recorded pEC50 greater than or equal to 6?
Output line: TRUE

Input line: # check: pEC50 of CCc1cccc([C@@](O)(C(=O)N2CCC(CC3CCN(c4ccc(C(N)=O)c(Cl)c4)CC3)CC2)C(F)(F)F)c1 is greater than or equal to 6
Output line: TRUE

Input line: Decide: pEC50 of CNC(=O)c1ccc(N2CCC(CC3CCN(C(=O)[C@](O)(c4cccc(OC(F)(F)F)c4)C(F)(F)F)CC3)CC2)nc1Cl >= 6?
Output line: TRUE

Input line: pEC50 >= 6 for CNC(=O)c1ccc(N2CCC(CC3CCN(C(=O)C(O)(c4cc(F)cc(F)c4)C(F)(F)F)CC3)CC2)nc1Cl (centres unmarked) ?
Output line: TRUE

Input line: I'd appreciate it if you could say whether CN(C)C(=O)c1ccc(N2CCC(CC3CCN(C(=O)[C@](O)(c4cccc(Cl)c4)C(F)(F)F)CC3)CC2)nc1Cl has pEC50 at least equal to 6.
Output line: TRUE

Input line: Hello, I need to know if COc1cc(F)cc(C(O)(C(=O)N2CCC(CC3CCN(c4ccc(C(=O)N(C)C)c(Cl)n4)CC3)CC2)C(F)(F)F)c1 (centres unmarked) has measured pEC50 not below 6. Thanks!
Output line: TRUE

Input line: Hi, just wondering whether CN(C)C(=O)c1ccc(N2CCC(CC3CCN(C(=O)[C@@](O)(c4ccccc4F)C(F)(F)F)CC3)CC2)nc1Cl shows pEC50 of 6 or higher.
Output line: FALSE

Input line: Determine whether this compound has pEC50 no lower than 6: CCc1cccc(C(O)(C(=O)N2CCC(CC3CCN(c4ccc(C(=O)N(C)C)c(Cl)c4)CC3)CC2)C(F)(F)F)c1 (centres unmarked)
Output line: FALSE

---

Molecular target: glutathione-S-transferase (GST) tagged LXRalpha LBD (ligand binding domain) (Homo sapiens, UniProt Q13133)
Construct: purchased Invitrogen pv4655
Sequence (Q13133 209-447 limits assumed): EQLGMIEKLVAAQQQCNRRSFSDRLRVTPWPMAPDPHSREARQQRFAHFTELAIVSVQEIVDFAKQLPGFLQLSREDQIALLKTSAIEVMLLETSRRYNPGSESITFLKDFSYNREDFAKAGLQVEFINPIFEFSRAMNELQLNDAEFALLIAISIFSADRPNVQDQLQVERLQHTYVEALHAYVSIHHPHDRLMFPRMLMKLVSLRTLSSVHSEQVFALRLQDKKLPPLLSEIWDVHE
Experiment: LanthaScreen TR-FRET Liver X Receptor Coactivator Assay, co-activator recruitment to LXRalpha LBD
Format: biochemical
Details: potency (Inflection Point, IP), co-activator recruitment to LXRalpha LBD, in relation to T0901317; read-out: LXR alpha IP
Consider the following compounds; for each one, report its pEC50.
Quick note: pEC50 values are minus log10 of concentrations in mol/L.

Input line: # input compound: COc1cccc(C(O)(C(=O)N2CCC(CC3CCN(c4ccc(C(=O)N(C)C)c(Cl)n4)CC3)CC2)C(F)(F)C(F)(F)F)c1 (stereo not shown) [Example 7-58] ; wanted: its pEC50
Output line: 6.56

Input line: What value of pEC50 has been reported for the following compound? CCC(O)(C(=O)N1CCC(CC2CCN(c3ccc(C(=O)N(C)C)c(Cl)c3)CC2)CC1)c1ccccc1 (stereo not shown) [Example 2-32]
Output line: 5.85

Input line: Any idea what pEC50 was measured for CN(C)C(=O)c1ccc(N2CCC(CC3CCN(C(=O)[C@](O)(c4cc(F)cc(Cl)c4)C(F)(F)F)CC3)CC2)cc1Cl [Example 2-102] ?
Output line: 7.54

Input line: Field request: pEC50 | item: CNC(=O)c1ccc(N2CCC(CC3CCN(C(=O)[C@](O)(c4cccc(C(F)(F)F)c4)C(F)(F)F)CC3)CC2)nc1Cl [Example 7-150]
Output line: 6.59

Input line: Reported pEC50, compound CNC(=O)c1ccc(N2CCC(CC3CCN(C(=O)[C@](O)(c4ccccc4)C(F)(F)F)CC3)CC2)cc1Cl [Example 7-126] : ____
Output line: 6.34

Input line: Returns the measured pEC50 for the input compound. Input: O=C(c1ccc(N2CCC(CC3CCN(C(=O)[C@](O)(c4ccccc4)C(F)(F)F)CC3)CC2)cc1Cl)N1CCC(n2ccnc2)C1 (stereo partly shown) [Example 4-19]
Output line: 6.12

Input line: Param item = CNC(=O)c1ccc(N2CCC(CC3CCN(C(=O)[C@@](O)(c4ccccc4)C(F)(F)F)CC3)CC2)nc1Cl [Example 7-140] ; retrieve measured pEC50.
Output line: 5.95

---

So I've got a bunch of compounds here, and I need their Emax values.
Target: glutathione-S-transferase (GST) tagged LXRalpha LBD (ligand binding domain) (Homo sapiens)
Construct: purchased Invitrogen pv4655
Assay: LanthaScreen TR-FRET Liver X Receptor Coactivator Assay, co-activator recruitment to LXRalpha LBD
Type: biochemical
Conditions: efficacy at max dose, in relation to reference dual agonist T0901317; read-out: LXR alpha Activity @ max dose (%)
Write the number in % without appending the unit.

Input line: Name the reported Emax value associated with the compound CN(C)C(=O)c1ccc(N2CCC(CC3CCN(C(=O)[C@](O)(c4cccc(OCC(F)(F)F)c4)C(F)(F)F)CC3)CC2)cc1Cl [Example 2-97]
Output line: 0

Input line: Endpoint output: Emax of COc1cccc([C@@](O)(C(=O)N2CCC(CC3CCN(c4ccc(C(=O)N(C)C)c(OC)n4)CC3)CC2)C(F)(F)F)c1 [Example 7-19] . Value?
Output line: 3

Input line: Consider the compound CN(C(=O)c1ccc(N2CCC(CC3CCN(C(=O)[C@](O)(c4ccccc4)C(F)(F)F)CC3)CC2)cc1Cl)C1CC1 [Example 4-11] and give its measured Emax.
Output line: 38

Input line: I would be grateful if you could share the reported Emax for CN(C)C(=O)c1ccc(N2CCC(CC3CCN(C(=O)[C@](O)(c4csc5ccccc45)C(F)(F)F)CC3)CC2)cc1Cl (stereo in doubt) [Example 2-169] .
Output line: 17

Input line: I have this compound here, CN(C)C(=O)c1ccc(N2CCC(CC3CCN(C(=O)C(F)(F)c4ccc(F)cc4)CC3)CC2)nc1Cl [Example 7-85] , and I need its recorded Emax.
Output line: 7

Input line: Which value of Emax has been reported for COc1cccc([C@@](O)(C(=O)N2CCC(CC3CCN(c4ccc(C(=O)N(C)C)c(Cl)c4)CC3)CC2)C(F)(F)F)n1 (stereo in doubt) [Example 2-165] in the records?
Output line: 18

Input line: For the compound CCc1cccc([C@@](O)(C(=O)N2CCC(CC3CCN(c4ccc(C(=O)N(C)C)c(C)c4)CC3)CC2)C(F)(F)F)c1 [Example 2-156] , what Emax is on record?
Output line: 12

Input line: What measured Emax goes with CNC(=O)c1ccc(N2CCC(CC3CCN(C(=O)[C@](O)(c4cccc(OC(F)(F)F)c4)C(F)(F)F)CC3)CC2)nc1Cl [Example 7-139] ?
Output line: 26

Input line: Entry CN(Cc1ccon1)C(=O)c1ccc(N2CCC(OC3CCN(C(=O)[C@](O)(c4ccccc4)C(F)(F)F)CC3)CC2)cc1Cl [Example 4-15] has what Emax?
Output line: 40

Input line: Could you share which Emax value was measured for COc1cccc([C@@](O)(C(=O)N2CC(CC3CCN(c4ccc(C(=O)N(C)C)c(OC)n4)CC3)C2)C(F)(F)F)c1 [Example 7-21] ?
Output line: 2

Input line: Which measured Emax value corresponds to CC(C)(C(=O)N1CCC(CC2CCN(c3cccc(S(C)(=O)=O)c3)CC2)CC1)c1ccccc1 [Example 2-73] ?
Output line: 35

Input line: I am curious: what Emax value has been reported for CC(C)C(O)(C(=O)N1CCC(CC2CCN(c3ccc(C(=O)N(C)C)c(Cl)c3)CC2)CC1)C(F)(F)F (stereo not shown) [Example 2-31] ?
Output line: 24

Input line: Which Emax reading was recorded for the compound CC(C)Oc1cccc([C@@](O)(C(=O)N2CC(CC3CCN(c4ccc(C(=O)N(C)C)c(Cl)c4)CC3)C2)C(F)(F)F)c1 [Example 2-60] ?
Output line: 2

Recorded values, source patent US10752587B2.
